The measured values listed here are drawn from PubChem BioAssay AID1159580.

Test Description: chemical genetic growth profiling, strain panel (AID 1159580);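 note: tested at 20 µM; growth read once vehicle control cultures reached saturation at 30 °C; 1 = growth at the plate median or of vehicle wells; lower values mean less growth of the strain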
Condition Notes: S. cerevisiae deletion strains, growth OD, locus YGR229C, strain SMI1, hits give low values
The campaign covered roughly 5,500 compounds. About 2,000 (36%) were called active. Roughly 18% stayed inconclusive and do not appear here. This is one part of the list.
Exercise: for every item that follows, state its recorded normalized growth.
Give bare numbers.

Record normalized growth for all entries; do not skip any.
1. COc1ccc2c(c1)OC/C(=C\c1ccc(OC)c(O)c1)C2=O
2. O=C(NNC(=S)Nc1cccc(Cl)c1)C1CC1
3. O=C(NNC(=S)Nc1cccc(Cl)c1)c1ccncc1

Found:
1. 0.386
2. 1
3. 0.997
